biological target: neuronal acetylcholine receptor subunit alpha-4 (Xenopus sp., UniProt A9JRM3)
Sequence (A9JRM3 whole entry): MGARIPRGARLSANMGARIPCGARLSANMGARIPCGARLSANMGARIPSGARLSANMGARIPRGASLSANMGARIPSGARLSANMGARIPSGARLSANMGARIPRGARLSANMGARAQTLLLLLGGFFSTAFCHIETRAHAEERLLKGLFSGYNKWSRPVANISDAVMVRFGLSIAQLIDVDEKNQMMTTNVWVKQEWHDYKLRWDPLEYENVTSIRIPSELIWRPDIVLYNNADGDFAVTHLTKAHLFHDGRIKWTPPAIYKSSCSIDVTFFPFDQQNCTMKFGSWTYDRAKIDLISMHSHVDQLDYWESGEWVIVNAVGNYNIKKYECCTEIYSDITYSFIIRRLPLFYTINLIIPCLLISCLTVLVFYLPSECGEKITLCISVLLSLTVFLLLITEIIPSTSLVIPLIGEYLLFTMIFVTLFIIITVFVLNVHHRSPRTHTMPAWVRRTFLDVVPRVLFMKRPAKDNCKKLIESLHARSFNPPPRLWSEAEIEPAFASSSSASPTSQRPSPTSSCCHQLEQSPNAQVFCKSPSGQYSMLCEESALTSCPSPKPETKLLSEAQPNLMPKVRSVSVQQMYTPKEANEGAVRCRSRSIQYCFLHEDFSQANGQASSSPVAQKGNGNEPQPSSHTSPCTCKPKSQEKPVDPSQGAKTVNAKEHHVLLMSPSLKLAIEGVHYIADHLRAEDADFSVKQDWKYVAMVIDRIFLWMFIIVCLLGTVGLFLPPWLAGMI
pKi: −log10 of the molar value.
Parameter threshold = 10. Response is Met when pKi meets or exceeds it, else Not met.

Completed entries (count: 2):
Brc1ccc([C@H]2CC3CCC2N3)cn1 (some centres not stated) | Met
Fc1ccc([C@H]2CC3CCC2N3)cn1 (some centres not stated) | Met

I'd appreciate it if you could say whether c1cncc([C@H]2CC3CCC2N3)c1 (some centres not stated) has pKi at least equal to 10.
Met

Determine whether measured pKi meets or exceeds 10 for O=c1ccc([C@H]2CC3CCC2N3)c[nH]1 (some centres not stated)
Not met

Assess whether reported pKi for Nc1ccc([C@H]2CC3CCC2N3)cn1 (some centres not stated) sits at 10 or higher.
Not met

Does pKi meet or surpass 10 for O=S(=O)(Oc1ccc([C@H]2CC3CCC2N3)cn1)C(F)(F)F (some centres not stated) ?
Not met

Is pKi for CN(C)c1ccc([C@H]2CC3CCC2N3)cn1 (some centres not stated) at or above 10?
Not met

* * *

Observed Ki, system neuronal acetylcholine receptor subunit alpha-2 (Xenopus tropicalis, UniProt A0A6I8T284).
In your response, put the unit directly after the numeric value.

CN(C)c1ccc([C@H]2CC3CCC2N3)cn1 (some centres undefined) [NDMNEP] | 100 nM
O=c1ccc([C@H]2CC3CCC2N3)c[nH]1 (some centres undefined) | 100 nM
Clc1ccc([C@H]2CC3CCC2N3)cn1 (some centres undefined) | 87 nM

Then this molecule:
Answer briefly: Ki recorded on neuronal acetylcholine receptor subunit alpha-2 (Xenopus tropicalis, UniProt A0A6I8T284) for O=S(=O)(Oc1ccc([C@H]2CC3CCC2N3)cn1)C(F)(F)F (some centres undefined) [NTEP]
Sequence (A0A6I8T284 whole entry): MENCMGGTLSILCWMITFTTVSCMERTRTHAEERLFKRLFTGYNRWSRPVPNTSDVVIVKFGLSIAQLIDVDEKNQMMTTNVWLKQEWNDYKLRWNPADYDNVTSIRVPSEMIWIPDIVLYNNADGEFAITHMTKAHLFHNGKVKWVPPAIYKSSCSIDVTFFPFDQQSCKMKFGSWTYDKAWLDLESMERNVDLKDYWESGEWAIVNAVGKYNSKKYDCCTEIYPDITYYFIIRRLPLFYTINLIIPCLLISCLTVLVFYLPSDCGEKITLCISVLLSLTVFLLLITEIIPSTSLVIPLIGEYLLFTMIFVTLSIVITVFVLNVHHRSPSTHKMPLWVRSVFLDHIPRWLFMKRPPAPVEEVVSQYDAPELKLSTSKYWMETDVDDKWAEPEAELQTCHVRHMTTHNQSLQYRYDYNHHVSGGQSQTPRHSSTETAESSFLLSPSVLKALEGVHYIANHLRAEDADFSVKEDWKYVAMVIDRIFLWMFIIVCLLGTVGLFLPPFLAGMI
10 nM

* * *

Here's what we have: pKi numbers for Cholinergic receptor nicotinic alpha 5 subunit (Xenopus sp., UniProt F7ELS1).
Formally, pKi is defined as -log10 of the concentration c, with c in mol/L.

Brc1ccc([C@H]2CC3CCC2N3)cn1 (some centres undefined) | 9.66
Fc1ccc([C@H]2CC3CCC2N3)cn1 (some centres undefined) | 8.68
c1cncc([C@H]2CC3CCC2N3)c1 (some centres undefined) | 7.96

Specify the recorded pKi for Nc1ccc([C@H]2CC3CCC2N3)cn1 (some centres undefined) , system: Cholinergic receptor nicotinic alpha 5 subunit (Xenopus sp., UniProt F7ELS1).
Sequence (F7ELS1 whole entry): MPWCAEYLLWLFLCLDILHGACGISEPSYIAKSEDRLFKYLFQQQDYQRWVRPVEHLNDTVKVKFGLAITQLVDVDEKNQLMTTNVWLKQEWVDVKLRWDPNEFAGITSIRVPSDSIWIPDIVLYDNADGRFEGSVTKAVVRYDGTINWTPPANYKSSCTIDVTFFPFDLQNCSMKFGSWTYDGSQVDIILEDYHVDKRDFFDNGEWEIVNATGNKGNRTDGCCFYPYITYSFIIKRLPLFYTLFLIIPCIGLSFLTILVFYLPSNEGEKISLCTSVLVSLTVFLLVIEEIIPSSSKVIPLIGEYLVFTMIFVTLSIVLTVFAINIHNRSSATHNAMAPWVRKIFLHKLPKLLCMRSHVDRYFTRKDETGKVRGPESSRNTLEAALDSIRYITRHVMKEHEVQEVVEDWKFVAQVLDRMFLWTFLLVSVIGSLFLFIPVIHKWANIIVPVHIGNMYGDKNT
8.14

* * *

Below, each entry is listed with its recorded Ki.
target: UniProtKB F6RLA9
Sequence (F6RLA9 whole entry): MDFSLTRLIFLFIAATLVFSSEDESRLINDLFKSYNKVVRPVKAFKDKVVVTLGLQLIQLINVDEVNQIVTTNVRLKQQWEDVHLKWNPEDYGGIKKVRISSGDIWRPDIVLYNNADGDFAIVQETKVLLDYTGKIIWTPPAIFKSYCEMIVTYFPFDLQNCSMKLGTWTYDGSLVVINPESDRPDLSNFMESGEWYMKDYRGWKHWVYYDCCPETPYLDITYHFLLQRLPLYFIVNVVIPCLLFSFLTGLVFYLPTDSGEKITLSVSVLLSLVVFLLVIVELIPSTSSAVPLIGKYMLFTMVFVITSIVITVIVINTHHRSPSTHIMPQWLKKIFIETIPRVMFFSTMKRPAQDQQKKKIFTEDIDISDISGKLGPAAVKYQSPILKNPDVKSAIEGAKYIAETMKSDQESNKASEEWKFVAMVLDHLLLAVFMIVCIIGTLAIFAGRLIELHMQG
Give just the number in nM; leave the unit off.

The examples below pair each entry with its known result.
Brc1ccc([C@H]2CC3CCC2N3)cn1 (some centres undefined) | 0.044
c1cncc([C@H]2CC3CCC2N3)c1 (some centres undefined) | 3.2
Nc1ccc([C@H]2CC3CCC2N3)cn1 (some centres undefined) | 4.3

Query molecule follows.
Name the value of Ki reported for Fc1ccc([C@H]2CC3CCC2N3)cn1 (some centres undefined) when tested on UniProtKB F6RLA9.
0.48

* * *

target: cholinergic receptor, nicotinic, alpha 1 (Muscle) isoform X1 (Xenopus sp., UniProt F6RLM5)
Sequence (F6RLM5 whole entry, canonical isoform): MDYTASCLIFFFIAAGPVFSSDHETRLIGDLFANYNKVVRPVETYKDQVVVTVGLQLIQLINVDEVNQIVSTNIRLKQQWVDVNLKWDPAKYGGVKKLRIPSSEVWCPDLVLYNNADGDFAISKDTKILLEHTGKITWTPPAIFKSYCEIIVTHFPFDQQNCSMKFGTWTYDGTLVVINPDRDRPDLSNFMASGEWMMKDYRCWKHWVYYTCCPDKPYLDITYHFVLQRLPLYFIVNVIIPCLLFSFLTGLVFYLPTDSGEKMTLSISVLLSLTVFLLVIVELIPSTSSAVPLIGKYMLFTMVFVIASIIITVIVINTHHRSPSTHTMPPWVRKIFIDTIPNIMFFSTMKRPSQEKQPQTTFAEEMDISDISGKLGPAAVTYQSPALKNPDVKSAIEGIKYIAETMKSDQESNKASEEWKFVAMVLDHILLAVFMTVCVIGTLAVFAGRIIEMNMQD
pKi: −log10 of the molar value.
pKi vs 10: at or above is Fulfilled, below is Not fulfilled.

c1cncc([C@H]2CC3CCC2N3)c1 (some centres not stated) | Fulfilled
O=S(=O)(Oc1ccc([C@H]2CC3CCC2N3)cn1)C(F)(F)F (some centres not stated) | Not fulfilled
CN(C)c1ccc([C@H]2CC3CCC2N3)cn1 (some centres not stated) | Not fulfilled
Fc1ccc([C@H]2CC3CCC2N3)cn1 (some centres not stated) | Fulfilled
Brc1ccc([C@H]2CC3CCC2N3)cn1 (some centres not stated) | Fulfilled

Okay, next one:
Please indicate if the recorded pKi for O=c1ccc([C@H]2CC3CCC2N3)c[nH]1 (some centres not stated) meets or exceeds 10.
Not fulfilled
